tested on: T. rubrum; assay: Activity against dermatophytes; type: cell-based; parameters: unit not given here
Can you tell me Activity against dermatophytes for the items I'm about to list?
Give bare numbers.

The cases that follow already have their Activity against dermatophytes on record.
molecule	studySystem	endpoint	experimentalResult
CCC(C)n1ncn(-c2ccc(N3CCN(c4ccc(OCC5COC(Cn6cncn6)(c6ccc(Cl)cc6Cl)O5)cc4)CC3)cc2)c1=O (stereo not shown) [Itraconazole]	T. rubrum	Activity against dermatophytes	0.03
CN(C/C=C/C#CC(C)(C)C)Cc1cccc2ccccc12 [Terbina]	T. rubrum	Activity against dermatophytes	0.016

Field: next molecule
-- ask For the molecule shown here, C[C@@H](n1ncn(-c2ccc(OCC(F)(F)C(F)F)cc2)c1=S)[C@](O)(Cn1cncn1)c1ccc(F)cc1F [Compound No. 3] , give the reported Activity against dermatophytes.
-- reply 0.004

Sourced from patent US6710049B2
